Numbers sourced from patent US10925971B2.

Quick reference for ka among some molecules
target: T1, monomeric human PRLR (hPRLR.mmh; SEQ ID NO:401) (Homo sapiens, UniProt P16471); test: Surface plasmon resonance (Biacore T200), antibody-capture format; type: binding; conditions: 25° C., analyte hPRLR.mmh
T1 construct: soluble monomeric (hPRLR.mmh); mmh (myc-myc-hexahistidine) (C)
T1 sequence (P16471 with tags, fused parts or gaps): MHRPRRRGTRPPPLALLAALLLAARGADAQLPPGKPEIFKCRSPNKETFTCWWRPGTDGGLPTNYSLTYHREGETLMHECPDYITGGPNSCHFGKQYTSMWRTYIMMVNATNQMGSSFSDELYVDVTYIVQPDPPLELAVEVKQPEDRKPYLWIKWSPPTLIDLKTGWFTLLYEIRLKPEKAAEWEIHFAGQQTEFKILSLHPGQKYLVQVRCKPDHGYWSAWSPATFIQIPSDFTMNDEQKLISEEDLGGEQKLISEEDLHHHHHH
Provide the reading as a plain figure in M/s.

Q) Using the record for H1H6800P: fully human anti-PRLR antibody, human IgG1 Fc; HCVR/LCVR SEQ ID NOs 194/202 (antibody, V domains shown) VH: EVQLVESGGGLVQPGRSLRLSCAASGFTFDGYAMHWVRQGPGKGLEWVSGISWYSDTLGYADSVKGRFTISRDNAKNSLYLQMNSLRTEDTAFYYCAKISSSGWAFDYWGQGTLVTVSS VL: EIVLTQSPGTLSLSPGERATLSCRASHSVSSAYLAWYQQKPGQTPRLLIYGTSSRATGIPDRFSGSGSGTDFTLTISRLEPEDFAVYYCQQYGSSPLFTFGPGTKVDIK , report its ka.
A) 421000

Continue with the next molecule.
Q) Looking for the measured ka of H1H6793P: fully human anti-PRLR antibody, human IgG1 Fc; HCVR/LCVR SEQ ID NOs 146/154 (antibody, V domains shown) VH: EVQLVESGGGLVQPGGSLRLSCAASGFSFSIYAMSWFRQAPGKGLEWVSAINGRGDGTHYADSVKGRFTISRDNSKTTLYLQMSSLRAEDTAVYYCAKPVMSTNGFDIWGQGTMVTVSS VL: DIQMTQSPSTLSASVGDRVTITCRASQSISSWLAWYQLKPGKAPKLLIYKASNLESGVPSRFSGSGSGTEFTLTISSLQPDDFATYYCQQYNIYWTFGQGTKVEIK , can you help?
A) 235000
